# System: MDA-MB-435 melanoma
# protocol: NCI-60 one-dose screen, 48 h
# conditions: 10 µM unless noted
The panel holds about 83,000 compounds, 20% with a hit somewhere; the sample as a whole holds those more often. Calls of active or inactive are those of the source. How the source made its calls: active means growth percent below 10; inactive means the rest.
Outcomes you can answer with include only these: 1 (yes) = active, 0 (no) = inactive

Solved entries (count: 6):
compound	category
O=C(Nc1ccc(Br)cc1)Nc1nc2ccc([N+](=O)[O-])cc2s1	1 (yes)
C[C@H]1c2[nH]c3ccccc3c2C[C@H]2C(=O)N(CCCCCCC(=O)NO)CC(=O)N21	0 (no)
CC1=NC2=NN3C(=NN2C(c2ccccc2)=C1)N=NC(c1ccc(Br)cc1)=C3c1ccc(Br)cc1	0 (no)
CN(C)CCCOc1ccc2c(c1)CN(C(=O)c1cc(C(=O)N3Cc4cccc(F)c4C3)ccc1O)C2	0 (no)
CCO/C=N/C1=C(C#N)C(c2ccc(Cl)cc2)c2sc3c(CC)cccc3c2O1 (stereo unspecified)	1 (yes)
c1ccc(C(c2nc3ncncc3[nH]2)N2CSc3nc4ncncc4n3C2)cc1 (stereo unspecified)	0 (no)

Lab log entry: "N#Cc1cnc2ccc(-c3cnc(N)nc3)cc2c1N1CCc2cc(F)c(Cl)cc21" — outcome as called in the assay?
1 (yes)

Lab log entry: "CN1CCN(c2ccc(/C=N/Nc3nc4ccccc4c(=O)n3-c3ccccc3)cc2)CC1" — outcome as called in the assay?
0 (no)

Lab log entry: "COc1ccc(/C(N)=N/C(N)=N/c2nc3ccccc3s2)cc1" — outcome as called in the assay?
0 (no)

Lab log entry: O=C(NNc1nc2cc(F)c(F)cc2n2c(CN3CC4CNCC4C3)ccc12)c1cnccn1 (stereo unspecified) — outcome as called in the assay?
0 (no)

Lab log entry: "CS(=O)(=O)c1ncc(-c2ccccc2)cn1" — outcome as called in the assay?
0 (no)

Lab log entry: "Cn1ccnc1C(=O)/C=C/c1ccc(CNC(=O)c2ccc(Cl)cc2)cc1" — outcome as called in the assay?
0 (no)

Lab log entry: COc1ccc(/C=N/NC(=O)c2cn(C3CC3)c3c(OC)c(N4CC5CCCNC5C4)c(F)cc3c2=O)cc1 (stereo unspecified) — outcome as called in the assay?
0 (no)

Lab log entry: O=C(c1ccc(Cl)cc1)C1[C@H](c2ccc(Cl)cc2)[C@@H](c2ccccc2)NC12C(=O)Nc1ccccc12 (stereo partly specified) — outcome as called in the assay?
0 (no)

Lab log entry: "C#CCn1cccc1CNc1ccc(OC)cc1" — outcome as called in the assay?
1 (yes)

Lab log entry: CCNC(=O)N1CCc2cc(OC)c(OCCc3ccc(OC)c(N)c3)cc2C1c1cc(C)c(C)cc1C (stereo unspecified) — outcome as called in the assay?
0 (no)

Lab log entry: "O=C(NNc1nc2cc(F)cc(F)c2n2cccc12)c1cnccn1" — outcome as called in the assay?
0 (no)

Lab log entry: "COc1ccc(-c2nc3cccc(O)c3c(=O)n2Cc2ccccc2)cc1COc1ccc(NC(C)=O)cc1" — outcome as called in the assay?
0 (no)

Lab log entry: "COc1ccc(NCc2cn(-c3ccc(C(=O)O)cc3)nc2-c2cc(C(F)(F)F)cc(C(F)(F)F)c2)cc1" — outcome as called in the assay?
0 (no)

Lab log entry: "CNC(=O)c1cc(Oc2ccc3nc(NC(=O)c4ccc(N5CCOCC5)c(C(F)(F)F)c4)sc3c2)ccn1" — outcome as called in the assay?
0 (no)

Lab log entry: "COc1ccc(OC)c(-c2nc(SCC(=O)c3ccc(Br)cc3)nc(Nc3ccc(S(N)(=O)=O)cc3)c2C#N)c1" — outcome as called in the assay?
1 (yes)

Lab log entry: CC(c1ccccc1)N1CSc2nc3ncncc3n2C1 (stereo unspecified) — outcome as called in the assay?
0 (no)

Lab log entry: "CCCCCc1ccc(S(=O)(=O)Nc2cccc(-c3csc(NC(=O)CCCCCN4CCN(CCO)CC4)n3)c2)cc1" — outcome as called in the assay?
0 (no)

Lab log entry: "C=C(C)[C@@H]1CC[C@]2(COC)CC[C@]3(C)[C@H](CC[C@@H]4[C@@]5(C)CCCNC(C)(C)[C@@H]5CC[C@]43C)[C@@H]12" — outcome as called in the assay?
0 (no)

Lab log entry: "C#C[C@]1(O)CC[C@H]2[C@@H]3CC=C4c5sc(-c6cccc(O)c6)nc5CC[C@]4(C)[C@H]3CC[C@@]21C" — outcome as called in the assay?
1 (yes)

Lab log entry: "Cc1ccc(-c2cc3nc(C(Cl)Cl)nc(-c4ccco4)n3n2)cc1" — outcome as called in the assay?
0 (no)

Lab log entry: "NS(=O)(=O)c1ccc(-n2cc(CN3CCNCC3)nn2)cc1" — outcome as called in the assay?
0 (no)

Lab log entry: "CCc1nn2c(C)cc(C)nc2c1Cc1ccc(/C=C/CN2CCN(CCOCCOCCN3CCN(C/C=C/c4ccc(Cc5c(CC)nn6c(C)cc(C)nc56)cc4)CC3)CC2)cc1" — outcome as called in the assay?
1 (yes)

The measurements presented in this section are drawn from PubChem BioAssay (NCI).
